meta.source: ChEMBL document CHEMBL1201862

Experiment: Luminescence Cell-Based Dose Response HTS to Identify Activators of Luciferase Translation or Activity in H4 […] Cells. [Related pubchem assays: 1829 (Project Summary), 1814 (Primary HTS)]
Assay type: functional
Activity calls are given as the source filed them.
Give measured EC50 for each item. Keep answers brief.

Consider the following illustrative entries.
                                   compound  property_measured     experimental_value
0  CCN1CCCC(OC(=O)c2cc(-c3ccc(C)cc3)nc3ccccc23)C1 (stereo not drawn)               EC50       31.1 µM (active)
1          O=C(OCc1ccccc1F)c1ccc2c(c1)OCCO2               EC50       1.38 µM (active)
2  O=C(c1ccccc1)c1nn(-c2ccc(Cl)cc2)c(=O)cc1C(F)(F)F               EC50  > 120 µM (not active)
3  Cc1ccc(-c2csc(NC(CO)c3nc4ccccc4n3CCOCCO)n2)cc1 (stereo not drawn)               EC50  > 120 µM (not active)

I'm hoping you can list EC50 for every compound here, please.
1. Cc1c(OCc2ccccc2)c(=O)ccn1Cc1ccccc1
2. Cc1ccc(OCCOc2cccc(Br)c2)c([N+](=O)[O-])n1
3. Cc1ccc(-n2cnc3c(sc4nccc(N(C)C)c43)c2=O)cc1
4. CC(=O)c1sc(N/N=C2\CC3CC2C(C)C3(C)C)nc1C (stereo not drawn)

["9.62 µM (active)", "27.6 µM (active)", "75.7 µM (active)", "12.9 µM (active)"]

###

Provide the reported AC50 of each item.
Target: Paired box protein Pax-8 (Homo sapiens, UniProt Q06710)
Sequence (Q06710 whole entry): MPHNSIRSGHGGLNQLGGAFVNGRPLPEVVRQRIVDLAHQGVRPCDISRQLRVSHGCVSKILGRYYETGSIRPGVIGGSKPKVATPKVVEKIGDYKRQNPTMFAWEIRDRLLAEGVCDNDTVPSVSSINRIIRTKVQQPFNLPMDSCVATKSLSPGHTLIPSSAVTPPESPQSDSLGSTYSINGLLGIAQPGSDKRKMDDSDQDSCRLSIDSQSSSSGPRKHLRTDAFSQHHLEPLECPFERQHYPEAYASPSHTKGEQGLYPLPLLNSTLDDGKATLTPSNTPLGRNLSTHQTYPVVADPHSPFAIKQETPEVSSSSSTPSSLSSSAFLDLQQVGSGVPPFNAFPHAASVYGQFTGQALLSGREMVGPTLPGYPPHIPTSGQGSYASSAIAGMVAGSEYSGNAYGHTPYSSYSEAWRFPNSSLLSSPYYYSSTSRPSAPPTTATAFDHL
Experiment: PAX8 transcriptional activity inhibition in RMG-I – RMG-I cells, luciferase, cherry-pick, dose response (AID 687027);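 note: luciferase reporter driven by Pax8 target thyroperoxidase promoter measured by SteadyGlo luminescence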
Type: functional, cell-based
The source made the active and inactive calls.

Example molecules with recorded AC50:
                                   molecule                                 tested_on  property_measured  experimental_value
0  Cc1noc(C)c1S(=O)(=O)N(C)C[C@H]1OCCCC[C@@H](C)Oc2ccc(NS(=O)(=O)c3ccc(Cl)cc3)cc2C(=O)N([C@@H](C)CO)C[C@@H]1C  Paired box protein Pax-8 (Homo sapiens, UniProt Q06710)               AC50    10.5 µM (active)
1  Cc1ccc(S(=O)(=O)Nc2cccc3c2O[C@@H](CN(C)C(=O)Nc2ccc(C(F)(F)F)cc2)[C@@H](C)CN([C@H](C)CO)C3=O)cc1  Paired box protein Pax-8 (Homo sapiens, UniProt Q06710)               AC50    12.6 µM (active)

Batch: AC50 for all items listed.
1. Nc1nc(N)c2c(ccc3c2ccn3Cc2cccc([N+](=O)[O-])c2)n1
2. COc1cc(-c2c(-c3cc(OC)c(OC)c(OC)c3)noc2C)ccc1F

1.5 µM (active)
2.78 µM (active)

Provide each entry's AC50 from the list below.
1. COc1ccccc1C#Cc1ccc([C@@H]2[C@@H](C#N)N(C(=O)C3CCCCC3)[C@H]2CO)cc1
2. COc1cc(NC(=O)c2ccc([N+](=O)[O-])o2)ccc1NC(=O)c1ccco1
3. CCCCNC(=O)C(Sc1ccccc1)c1ccccc1 (centres undefined)
4. Cc1ccccc1-c1ccc([C@@H]2[C@@H](CO)N3CCCCN(C(=O)NC4CCCC4)C[C@H]23)cc1
5. Cc1ccc(S(=O)(=O)CC(CN2CCCCC2)N2CCCCC2)cc1 (centres undefined)

1: 6.05 µM (active); 2: 3.75 µM (active); 3: 65.4 µM (active); 4: 21.6 µM (active); 5: 4.72 µM (active)
